# Test system: P388
# run.description: Concentration required to inhibit mouse P388 cell line growth by 50% at 72 hr continuous exposure
# Type: functional
# condition: P388, 72 h
recorded.metric: GI50 (ng/mL)
# unit: ng/mL | format: bare number

[
  {
    "smiles.str": "CC(=O)O[C@@]12CO[C@@H]1CC[C@@]1(C)[C@@H]3O[C@H](CN(C)C)O[C@@H]3C3=C(C)[C@@H](OC(=O)[C@H](O)[C@@H](NC(=O)OC(C)(C)C)c4cccc(F)n4)C[C@@](O)([C@@H](OCc4ccccc4)[C@@H]12)C3(C)C",
    "GI50 / ng/mL": 0.67
  }
]

Query string: I'd like to know its GI50. The molecule in question is `CC(=O)O[C@@]12CO[C@@H]1CC[C@@]1(C)[C@@H]3O[C@H](CNC4CC4)O[C@@H]3C3=C(C)[C@@H](OC(=O)[C@H](O)[C@@H](NC(=O)OC(C)(C)C)c4ccccn4)C[C@@](O)([C@@H](OCc4ccccc4)[C@@H]12)C3(C)C`
Result string: 0.17

---

Mortality values, listed per item
# Test system: Mus musculus
# run.description: Number of mice died at 17.8 mg/kg of intravenous dose among the total 6 mice tested
# Assay type: functional
Format: numeric value only, no unit, no commentary.

[
  {
    "smiles.str": "CC(=O)O[C@@]12CO[C@@H]1CC[C@@]1(C)[C@@H]3O[C@H](CN(C)C)O[C@@H]3C3=C(C)[C@@H](OC(=O)[C@H](O)[C@@H](NC(=O)OC(C)(C)C)c4ccccn4)C[C@@](O)([C@@H](OCc4ccccc4)[C@@H]12)C3(C)C",
    "system": "Mus musculus",
    "reported.result": 0
  }
]

Query string: # get_value(readout='Mortality', item= `CC(=O)O[C@@]12CO[C@@H]1CC[C@@]1(C)[C@@H]3O[C@H](CN4CCOCC4)O[C@@H]3C3=C(C)[C@@H](OC(=O)[C@H](O)[C@@H](NC(=O)OC(C)(C)C)C(C)(C)C)C[C@@](O)([C@@H](OCc4ccccc4)[C@@H]12)C3(C)C` )
Result string: 6

---

# Test system: P388
# run.description: Concentration required to inhibit mouse P388 cell line growth by 50% at 72 hr continuous exposure
# Type: functional
# condition: P388, 72 h
Mark TRUE for GI50 under 0.2 ng/mL, FALSE if at or over.

Before answering, review these 5 worked examples.
[
  {
    "smiles.str": "CC(=O)O[C@@]12CO[C@@H]1CC[C@@]1(C)[C@@H]3O[C@H](CNC4CC4)O[C@@H]3C3=C(C)[C@@H](OC(=O)[C@H](O)[C@@H](NC(=O)OC(C)(C)C)c4nccs4)C[C@@](O)([C@@H](OCc4ccccc4)[C@@H]12)C3(C)C",
    "label.value": "TRUE"
  },
  {
    "smiles.str": "CC(=O)O[C@@]12CO[C@@H]1CC[C@@]1(C)[C@@H]3O[C@H](CN4CCOCC4)O[C@@H]3C3=C(C)[C@@H](OC(=O)[C@H](O)[C@@H](NC(=O)OC(C)(C)C)c4cscn4)C[C@@](O)([C@@H](OCc4ccccc4)[C@@H]12)C3(C)C",
    "label.value": "TRUE"
  },
  {
    "smiles.str": "CC(=O)O[C@@]12CO[C@@H]1CC[C@@]1(C)[C@@H]3O[C@H](CNC4CCC4)O[C@@H]3C3=C(C)[C@@H](OC(=O)[C@H](O)[C@@H](NC(=O)OC(C)(C)C)c4ccccn4)C[C@@](O)([C@@H](OCc4ccccc4)[C@@H]12)C3(C)C",
    "label.value": "FALSE"
  },
  {
    "smiles.str": "CC(=O)O[C@@]12CO[C@@H]1CC[C@@]1(C)[C@@H]3O[C@H](CN(C)C)O[C@@H]3C3=C(C)[C@@H](OC(=O)[C@H](O)[C@@H](NC(=O)OC(C)(C)C)c4ccccn4)C[C@@](O)([C@@H](OCc4ccccc4)[C@@H]12)C3(C)C",
    "label.value": "FALSE"
  },
  {
    "smiles.str": "CC(=O)O[C@@]12CO[C@@H]1C[C@H](O)[C@@]1(C)C(=O)[C@H](O)C3=C(C)[C@@H](OC(=O)[C@H](O)[C@@H](NC(=O)OC(C)(C)C)c4ccccc4)C[C@@](O)([C@@H](OCc4ccccc4)[C@H]21)C3(C)C",
    "label.value": "FALSE"
  }
]

Query string: Record `CC(=O)O[C@@]12CO[C@@H]1CC[C@@]1(C)[C@@H]3O[C@H](CN4CCOCC4)O[C@@H]3C3=C(C)[C@@H](OC(=O)[C@H](O)[C@@H](NC(=O)OC(C)(C)C)c4nccs4)C[C@@](O)([C@@H](OCc4ccccc4)[C@@H]12)C3(C)C` : is its GI50 strictly below 0.2 ng/mL?
Result string: TRUE

Query string: State whether 0.2 ng/mL exceeds GI50 recorded for `CNC[C@@H]1O[C@@H]2C3=C(C)[C@@H](OC(=O)[C@H](O)[C@@H](NC(=O)OC(C)(C)C)c4ccccn4)C[C@@](O)([C@@H](OCc4ccccc4)[C@H]4[C@@](C)(CC[C@H]5OC[C@]54OC(C)=O)[C@@H]2O1)C3(C)C` .
Result string: FALSE
